Reference for the values: paper PMC9427789

- test target: T1, His-SUMO-FGF23 (N-terminal domain of human FGF23, wild type) (human, UniProt Q9GZV9 25-204)
- T1 chain: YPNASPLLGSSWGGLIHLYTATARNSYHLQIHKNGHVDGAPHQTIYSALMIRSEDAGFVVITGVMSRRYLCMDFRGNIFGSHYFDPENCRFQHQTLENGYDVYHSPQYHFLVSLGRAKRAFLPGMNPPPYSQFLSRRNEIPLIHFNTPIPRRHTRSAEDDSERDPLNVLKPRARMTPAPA
- experiment description: ELISA
Form field: Kd (one value per entry).
# value in nM; strip the unit string

Looking for the measured Kd of Burosumab VL:A32S (antibody, V domains shown) VH: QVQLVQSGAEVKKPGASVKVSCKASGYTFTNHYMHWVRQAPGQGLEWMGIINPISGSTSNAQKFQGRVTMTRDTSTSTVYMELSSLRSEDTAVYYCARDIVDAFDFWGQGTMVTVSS VL: AIQLTQSPSSLSASVGDRVTITCRASQGISSSLVWYQQKPGKAPKLLIYDASSLESGVPSRFSGSGSGTDFTLTISSLQPEDFATYYCQQFNDYFTFGPGTKVDIK , can you help?
0.48

Others:
// lookup Kd for Burosumab variant with combined VH:V97A and VL:A32S mutations (antibody, V domains shown) VH: QVQLVQSGAEVKKPGASVKVSCKASGYTFTNHYMHWVRQAPGQGLEWMGIINPISGSTSNAQKFQGRVTMTRDTSTSTVYMELSSLRSEDTAVYYCARDIADAFDFWGQGTMVTVSS VL: AIQLTQSPSSLSASVGDRVTITCRASQGISSSLVWYQQKPGKAPKLLIYDASSLESGVPSRFSGSGSGTDFTLTISSLQPEDFATYYCQQFNDYFTFGPGTKVDIK
0.21

Field entry: Burosumab VH:V97A (antibody, V domains shown) VH: QVQLVQSGAEVKKPGASVKVSCKASGYTFTNHYMHWVRQAPGQGLEWMGIINPISGSTSNAQKFQGRVTMTRDTSTSTVYMELSSLRSEDTAVYYCARDIADAFDFWGQGTMVTVSS VL: AIQLTQSPSSLSASVGDRVTITCRASQGISSALVWYQQKPGKAPKLLIYDASSLESGVPSRFSGSGSGTDFTLTISSLQPEDFATYYCQQFNDYFTFGPGTKVDIK
0.65

Param item: Burosumab (wild type) (antibody, V domains shown) VH: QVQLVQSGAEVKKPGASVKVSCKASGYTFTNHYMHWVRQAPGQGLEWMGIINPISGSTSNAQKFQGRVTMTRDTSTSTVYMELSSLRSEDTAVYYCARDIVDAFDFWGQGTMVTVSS VL: AIQLTQSPSSLSASVGDRVTITCRASQGISSALVWYQQKPGKAPKLLIYDASSLESGVPSRFSGSGSGTDFTLTISSLQPEDFATYYCQQFNDYFTFGPGTKVDIK
0.77
